All figures here come from PubChem BioAssay (EPA / NIEHS).

Assay: ATG_E_Box_CIS: Attagene CIS-FACTORIAL HepG2 Assay for human Enhancer Box (E-box) (AID 2282936)
Conditions: HepG2 E-box cis-reporter transcription, actives raise or lower the signal
The source made the active and inactive calls. How the source made its calls: active means hit-call score of the fitted dose curve at least 0.9, where 1 is the maximum; inactive means score below 0.9.
Could you please pick one outcome from this set? YES = active, NO = inactive

COMPOUND: CCC(C)C(=O)OCCc1ccccc1 (configuration not stated)
DISCRETE_LABEL: NO

COMPOUND: CCC(=O)C1CC(C(C)C)CC=C1C (configuration not stated)
DISCRETE_LABEL: NO

COMPOUND: CCCCCCCCCCCC(=O)OCC
DISCRETE_LABEL: NO

COMPOUND: Cc1ccc([N+](=O)[O-])cc1N
DISCRETE_LABEL: NO

COMPOUND: N#CC1(N)CCCCC1
DISCRETE_LABEL: NO

Query :: Per the records of this test, what outcome belongs to `C=Cc1cccc(C)c1` ?
Result :: NO

Query :: Per the records of this test, what outcome belongs to `CC(C)=NNC(N)=S` ?
Result :: NO

Query :: Per the records of this test, what outcome belongs to `COc1ccc(-c2coc3cc(O)cc(O)c3c2=O)cc1` ?
Result :: NO

Query :: Per the records of this test, what outcome belongs to `CC(=O)OCc1ccccc1` ?
Result :: NO

Query :: Per the records of this test, what outcome belongs to CC(C=O)c1ccccc1 (configuration not stated) ?
Result :: NO

Query :: Per the records of this test, what outcome belongs to `COC(=O)c1ccccc1C` ?
Result :: NO

Query :: Per the records of this test, what outcome belongs to C=CC(=O)OCC(C)OCC(C)OCC(C)OC(=O)C=C (configuration not stated) ?
Result :: YES

Query :: Per the records of this test, what outcome belongs to `Cc1c(C(=O)c2c[nH]n(C)c2=O)ccc(S(C)(=O)=O)c1C1=NOCC1` ?
Result :: NO

* * *

Molecular target: Peroxisome proliferator-activated receptor gamma (Homo sapiens)
Experiment: ATG_PPARg_TRANS: Attagene TRANS-FACTORIAL HepG2 Assay for human Peroxisome Proliferator-activated Receptor-gamma (PPARg) (AID 2283007)
Results filed as inconclusive are left out. Calls of active or inactive are those of the source. The calls were made as follows: active = hit-call score of the fitted dose curve at least 0.9, where 1 is the maximum; inconclusive = response in the unintended direction; inactive = score below 0.9.
Could you please pick one outcome from this set? active, inactive

Examples with answers:
COMPOUND: CCCCC1C(=O)N(c2ccccc2)N(c2ccccc2)C1=O
DISCRETE_LABEL: active

COMPOUND: CC(C)=CCCC(C)=CC#N
DISCRETE_LABEL: inactive

COMPOUND: c1ccc(-c2nc3ccccc3[nH]2)cc1
DISCRETE_LABEL: inactive

COMPOUND: CCCCNS(=O)(=O)c1ccccc1
DISCRETE_LABEL: inactive

COMPOUND: O=C(O)/C=C/c1ccccc1
DISCRETE_LABEL: inactive

COMPOUND: O=C1CCCCCCCCCCC1
DISCRETE_LABEL: inactive

Query :: Per the records of this test, what outcome belongs to `COc1cc(O)c(C(=O)c2ccccc2)cc1S(=O)(=O)O` ?
Result :: inactive

Query :: Per the records of this test, what outcome belongs to CC1=NN(c2ccc(S(=O)(=O)O)cc2)C(=O)C1N=Nc1ccccc1 (centres undefined) ?
Result :: inactive

Query :: Per the records of this test, what outcome belongs to `CC(C)(C)N` ?
Result :: inactive

Query :: Per the records of this test, what outcome belongs to CCCCC(C=O)CC (centres undefined) ?
Result :: inactive

Query :: Per the records of this test, what outcome belongs to `CCCCCCCCCCCCCCCCCCOS(=O)(=O)O` ?
Result :: active

Query :: Per the records of this test, what outcome belongs to `CCc1cccc(CC)c1` ?
Result :: inactive

Query :: Per the records of this test, what outcome belongs to C=CC(C)(CCC=C(C)C)OC(=O)C=Cc1ccccc1 (centres undefined) ?
Result :: active

Query :: Per the records of this test, what outcome belongs to `CN(C)Cc1cc(CN(C)C)c(O)c(CN(C)C)c1` ?
Result :: inactive

Query :: Per the records of this test, what outcome belongs to CC(Cl)COP(=O)(OCC(C)Cl)OCC(C)Cl (centres undefined) ?
Result :: inactive
